# Measured Target: Cholinesterase (Equus caballus, UniProt P81908)
# Sequence (P81908 whole entry): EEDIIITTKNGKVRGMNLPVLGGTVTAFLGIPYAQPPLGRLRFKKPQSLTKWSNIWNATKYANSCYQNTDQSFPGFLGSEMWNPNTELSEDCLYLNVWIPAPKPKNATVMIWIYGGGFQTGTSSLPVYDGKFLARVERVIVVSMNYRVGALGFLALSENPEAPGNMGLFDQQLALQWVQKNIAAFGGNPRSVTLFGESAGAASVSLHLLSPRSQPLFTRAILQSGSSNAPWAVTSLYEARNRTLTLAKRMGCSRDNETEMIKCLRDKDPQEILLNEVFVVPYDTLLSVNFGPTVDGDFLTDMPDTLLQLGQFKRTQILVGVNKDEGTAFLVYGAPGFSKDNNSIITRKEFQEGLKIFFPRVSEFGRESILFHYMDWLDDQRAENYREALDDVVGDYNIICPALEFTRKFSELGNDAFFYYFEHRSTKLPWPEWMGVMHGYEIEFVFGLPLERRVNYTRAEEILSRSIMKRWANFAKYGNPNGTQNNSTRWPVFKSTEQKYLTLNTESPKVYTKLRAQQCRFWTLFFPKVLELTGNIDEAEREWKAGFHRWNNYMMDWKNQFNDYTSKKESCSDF
Binarize IC50 at 300 nM; below is MET, at or above is NOT MET.

- Molecule: "COc1cc(/C=C(\\C(C)=O)C(=O)NCCCCNc2c3c(nc4ccccc24)CCCC3)ccc1O"
  Measured Target: "Cholinesterase (Equus caballus, UniProt P81908)"
  Assigned Label: "NOT MET"
- Molecule: "CC(=O)CC(=O)NCCCCNc1c2c(nc3ccccc13)CCCC2"
  Measured Target: "Cholinesterase (Equus caballus, UniProt P81908)"
  Assigned Label: "MET"
- Molecule: "COc1cc(/C=C(\\C(C)=O)C(=O)NCCCNc2c3c(nc4ccccc24)CCCC3)ccc1O"
  Measured Target: "Cholinesterase (Equus caballus, UniProt P81908)"
  Assigned Label: "NOT MET"
- Molecule: "COc1cc(CC(C(C)=O)C(=O)NCCCCCCNc2c3c(nc4ccccc24)CCCC3)ccc1O (configuration not stated)"
  Measured Target: "Cholinesterase (Equus caballus, UniProt P81908)"
  Assigned Label: "MET"
- Molecule: "CC(=O)CC(=O)NCCNc1c2c(nc3ccccc13)CCCC2"
  Measured Target: "Cholinesterase (Equus caballus, UniProt P81908)"
  Assigned Label: "NOT MET"
- Molecule: "CC(=O)CC(=O)NCCCCCCNc1c2c(nc3ccccc13)CCCC2"
  Measured Target: "Cholinesterase (Equus caballus, UniProt P81908)"
  Assigned Label: "MET"

Then there is this molecule:
Bench note: check whether CC(=O)/C(=C\c1ccc(O)cc1)C(=O)NCCCNc1c2c(nc3ccccc13)CCCC2 shows IC50 below 300 nM
NOT MET

---

// endpoint pIC50 / system Acetylcholinesterase (Torpedo californica)
In plain terms, pIC50 is the concentration in mol/L turned into minus its base-10 logarithm.

- Compound: "CC(=O)C(Cc1ccc(O)cc1)C(=O)NCCCNc1c2c(nc3ccccc13)CCCC2 (stereo not given)"
  pIC50: 5.06
- Compound: "CC(=O)C(Cc1ccc(O)cc1)C(=O)NCCCCNc1c2c(nc3ccccc13)CCCC2 (stereo not given)"
  pIC50: 5.70

Given CC(=O)/C(=C\c1ccc(O)cc1)C(=O)NCCCCNc1c2c(nc3ccccc13)CCCC2 , state its recorded pIC50.
5.42

Same question, CC(=O)C(Cc1ccc(O)cc1)C(=O)NCCCCCCNc1c2c(nc3ccccc13)CCCC2 (stereo not given) this time
6.89

Field entry: COc1cc(CC(C(C)=O)C(=O)NCCCCNc2c3c(nc4ccccc24)CCCC3)ccc1O (stereo not given)
5.43

Same read-out for CC(=O)CC(=O)NCCNc1c2c(nc3ccccc13)CCCC2 ?
6.34

Another compound to look at: CC(=O)CC(=O)NCCCCNc1c2c(nc3ccccc13)CCCC2
7.05

---

This document collects pIC50 values reported for Acetylcholinesterase (Torpedo californica, UniProt P04058).
Entry type: numeric. Quantity: pIC50, the -log10 of concentration in molar units.

Look over these answered cases.
- Compound: "COc1cc(CC(C(C)=O)C(=O)NCCCCCCNc2c3c(nc4ccccc24)CCCC3)ccc1O (stereo not drawn)"
  Measured Target: "Acetylcholinesterase (Torpedo californica, UniProt P04058)"
  pIC50: 7.10
- Compound: "COc1cc(/C=C(\\C(C)=O)C(=O)NCCCCCCNc2c3c(nc4ccccc24)CCCC3)ccc1O"
  Measured Target: "Acetylcholinesterase (Torpedo californica, UniProt P04058)"
  pIC50: 6.54

Let's switch to this compound now.
# query: pIC50 of entry CC(=O)CC(=O)NCCCNc1c2c(nc3ccccc13)CCCC2
6.62
